Target: KLC1-TPR N301A mutant (human) (UniProt Q07866)
Assay: ITC; peptide (1-3 mM) in the syringe injected into 60-130 uM KLC1-TPR or KLC2-TPR (or mutant) in the cell; 25 C; 20 mM Bis-Tris pH 6.5, 500 mM NaCl, 0.5 mM TCEP; one-site binding model
outcomeMeasure: Kd (µM)
Numbers only, in µM.

Query string: Please give the documented Kd of Ac-EMDWDDSALT-OH [ALC1 peptide (alcadein-1)]
Result string: 179
